- Assayed System: MASP-2 CCP2-SP (Homo sapiens (Human))
- Sequence (O00187 445-686): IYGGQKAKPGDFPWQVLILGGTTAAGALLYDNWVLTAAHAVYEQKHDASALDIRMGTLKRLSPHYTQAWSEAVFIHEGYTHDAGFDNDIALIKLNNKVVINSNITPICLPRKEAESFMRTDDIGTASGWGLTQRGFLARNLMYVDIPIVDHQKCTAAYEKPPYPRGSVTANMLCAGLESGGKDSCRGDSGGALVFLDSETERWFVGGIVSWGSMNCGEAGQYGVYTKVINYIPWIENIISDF
- Sequence (O00187 364-432 partner): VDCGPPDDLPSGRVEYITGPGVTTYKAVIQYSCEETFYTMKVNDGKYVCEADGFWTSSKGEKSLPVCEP
- Protocol Notes: MASP-2 co-crystallization, X-ray crystallography and structure analysis (H-bonds, van der Waals contacts)
- Particulars: Table A5-2 pharmacophore distance, S3/S4 region
Readout Type: d(N2,CA2)

The examples below pair each entry with its known result.
C[C@H](NC(=O)[C@H](N)CCc1cc(Cl)cc(Cl)c1)C(=O)NCc1ccc(C(=N)N)cc1: 5.84
Cc1cc(Cl)cc(CNC(=O)[C@H](C)NC(=O)[C@H]2C[C@H](Cc3ccccc3)CN2)c1O: 6.14
C[C@H](NC(=O)[C@H]1C[C@@H](c2ccccc2)CCN1)C(=O)NCc1cnc2[nH]cc(Cl)c2c1: 5.79

Request: What measured d(N2,CA2) goes with Cc1nc(N)ccc1CNC(=O)[C@H](C)NC(=O)[C@H]1C[C@@H](Cc2ccccc2)CCN1 ?
Result: 6.50
